# Experimental System: T1, human GIP receptor (human) (UniProt P48546)
# T1 sequence (looked up): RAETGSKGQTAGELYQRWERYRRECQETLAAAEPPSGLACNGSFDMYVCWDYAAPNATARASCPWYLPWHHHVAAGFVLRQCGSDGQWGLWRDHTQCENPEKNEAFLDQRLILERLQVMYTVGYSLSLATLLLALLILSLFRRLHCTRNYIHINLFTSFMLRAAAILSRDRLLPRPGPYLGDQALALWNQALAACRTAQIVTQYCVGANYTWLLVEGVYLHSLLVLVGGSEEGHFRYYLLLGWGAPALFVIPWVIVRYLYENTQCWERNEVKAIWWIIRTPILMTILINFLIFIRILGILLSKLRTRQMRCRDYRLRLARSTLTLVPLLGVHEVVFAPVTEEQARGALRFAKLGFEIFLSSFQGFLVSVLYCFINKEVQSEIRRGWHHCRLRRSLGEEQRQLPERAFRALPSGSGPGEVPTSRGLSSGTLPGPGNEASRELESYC
# Run Description: cell-based or functional assay
Measured Quantity: log10(cAMP Rel EC50, nM (1% HSA)) (log10 of the value in nM)
Could you please treat all values as log10 of cAMP Rel EC50, nM (1% HSA) in nM?

Consider the worked cases shown below.
Binder | log10(cAMP Rel EC50, nM (1% HSA))
YXQGTFTSDFSXXLDKKAQXAFIEYLLEXGESSGAPPPSGT (synthetic construct; SITE 2: note = 2-Aminoisobutyric Acid; SITE 12: note = L-ornithine; SITE 13: note = alpha-methyl-leucine; SITE 17: note = Lysine is chemically modified through conjugation of the epsilon-amino group of the Lysine side chain with (2-[2-(2-Amino-ethoxy)-ethoxy]-acetyl)2-(gamma-Glu)) [Example 180] | 1.38
YXQGTFTSDFSQXLDKKAQXAFIEYLLEXGPSSGAPPPSGX (synthetic construct; SITE 2: note = 2-Aminoisobutyric Acid; SITE 13: note = alpha-methyl-leucine; SITE 17: note = Lysine is chemically modified through conjugation of the epsilon-amino group of the Lysine side chain with (2-[2-(2-Amino-ethoxy)-ethoxy]-acetyl)-(gamma-Glu)-CO-(CH2) 16-CO2H; SITE 20: n) [Example 782] | 1.19

YXQGTFTSDFSQXLDXKAQXAFIEYLLEAGPSSGAPPPSGSEEE (Aib, αMeL, Orn, D-Ala; C18 diacid-(γ-Glu)2 acyl; amide; synthetic construct; SITE 2: note = 2-Aminoisobutyric Acid; SITE 13: note = alpha-methyl-leucine; SITE 16: note = L-ornithine; SITE 17: note = Lysine is chemically modified through conjugation of the epsilon-amino group of the Lysine side chain with (gamma-Glu)2-CO-(CH2)16-CO2H; SITE 20: note = 2-Am) [Example 1039] yielded log10(cAMP Rel EC50, nM (1% HSA)) of 1.43

YXQGTXTSDXXIXLDXKAQXEFIEXLVEGGPSSGAPPPSGE (synthetic construct; SITE 2: note = 2-Aminoisobutyric Acid; SITE 6: note = alpha-methyl-2-fluoro-L-phenylalanine; SITE 10: note = 3-(4-Pyridyl)-L-alanine; SITE 11: note = alpha-methyl-L-serine; SITE 13: note = alpha-methyl-leucine; SITE 16: note = L-ornithine; SITE 17: note = Lysine is chemically mo) [Example 749] yielded log10(cAMP Rel EC50, nM (1% HSA)) of 0.17

YXQGTFTSDXSQXLDKKAQXAFIEXLIEGGPSSGAPPPSGSEE (non-natural residues; Lys acylated C18 diacid; C-terminal amide; synthetic construct; SITE 2: note = 2-Aminoisobutyric Acid; SITE 10: note = 3-(4-Pyridyl)-L-alanine; SITE 13: note = alpha-methyl-leucine; SITE 17: note = Lysine is chemically modified through conjugation of the epsilon-amino group of the Lysine side chain with (2-[2-(2-Amino-ethoxy)-ethoxy]-acetyl)) [Example 954] yielded log10(cAMP Rel EC50, nM (1% HSA)) of 1.55

From: patent US20240270821A1
